Numbers sourced from PubChem BioAssay (NCATS).

Parameter: activity, negative = inhibition. Scope: all listed entries.
- experimental-protocol: qHTS profiling for inhibitors of Plasmodium falciparum proliferation (AID 504749);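 note: 0% = DMSO vehicle and full inhibition = artemisinin control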
- experimental-setup: P. falciparum in erythrocytes, SYBR Green DNA, 72 h; at 28.7 µM (top of the series); parasite line B
Records with an inconclusive call do not appear.
readout: activity, negative = inhibition (%)

CC1=C2[C@@H]3OC(=O)[C@@H](C)[C@@H]3CC[C@]2(C)C=CC1=O: -4.04
CNC(C)[C@@H](O)c1ccc(O)cc1 (stereo partly drawn): 3.21
COc1cc(N)c(Cl)cc1C(=O)N[C@@H]1CN2CCC1CC2: 5.5
C#CCN(C)[C@@H](C)Cc1ccccc1: 13.3
C[C@]12CC[C@H](O)CC1=CCC1C2CC[C@]2(C)C(=O)CC[C@@H]12 (stereo partly drawn): 19
CC[C@@]1(c2ccc(N)cc2)CCC(=O)NC1=O: 3.27
CCCC[N+]1(C)C2CC(OC(=O)C(CO)c3ccccc3)CC1C1OC12 (stereo not drawn): -5.62
CNC(C)[C@@H](O)c1ccccc1 (stereo partly drawn): -5.29
Oc1ccc2c3c1O[C@H]1[C@@H](O)CC[C@@]4(O)C(C2)N(CC2CCC2)CCC314 (stereo partly drawn): 0.575
C[C@H](NC(C)(C)C)C(=O)c1cccc(Cl)c1: 0.713
CC(C)N(CC[C@@](C(N)=O)(c1ccccc1)c1ccccn1)C(C)C: 2.7
CC(=O)OC1C[C@H](O[C@@H]2C(O)C[C@H](O[C@@H]3C(O)C[C@@H](OC4CC[C@]5(C)C(CCC6C5CC(O)[C@@]5(C)C(C7=CC(=O)OC7)CC[C@@]65O)C4)OC3C)OC2C)O[C@H](C)[C@H]1O[C@H]1OC(CO)C(O)C(O)C1O (stereo partly drawn): 17.8
N[C@H]1C[C@H]1c1ccccc1: 3.27
